Cited source: PubChem BioAssay AID1159580

Protocol Details: chemical genetic growth profiling, strain panel (AID 1159580);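 further: tested at 20 µM; growth read once vehicle control cultures reached saturation at 30 °C; 1 = growth at the plate median or of vehicle wells; lower values mean less growth of the strain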
Condition Label: S. cerevisiae deletion strains, growth OD, locus YDL035C, strain GPR1, active compounds read low
Among all 5,500 compounds or so, about 2,000 (36%) were called active. Roughly 18% stayed inconclusive and do not appear here. This is one part of the list.
Property: normalized growth; scope: individual molecules

{"Molecule": "CN1C(C(=O)Nc2ccccn2)=C(O)c2ccccc2S1(=O)=O", "normalized growth": 1.01}
{"Molecule": "COc1ccc2c(c1)CCC(c1ccccc1)=C2c1ccc(OCCN2CCCC2)cc1", "normalized growth": 0.638}
{"Molecule": "Cc1cccc(C)c1NC1=NCCCS1", "normalized growth": 0.979}
{"Molecule": "C=C1CCC2C(CC2(C)C)C(=O)CCC1O (stereo unspecified)", "normalized growth": 1}
{"Molecule": "Clc1cccc(Cl)c1NC1=NCCN1", "normalized growth": 1.02}
{"Molecule": "C=C1CCC(OC(C)=O)/C(C)=C/C[C@@H]2[C@@H]1CC2(C)C (stereo partly specified)", "normalized growth": 1.01}
